Source of measurements: the supplement of paper PMC10567573

B1: CHIT1 (parent)
chain: CSWKGATKQRIQDQKVPYIFRDNQ

Variants of: B1
Experiment: protein stability index of a GFP-peptide fusion (GPS, HEK-293T) (PSI 1-6); higher = more stable;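 also: lentivirally expressed fusions sorted by FACS into six bins by GFP to DsRed ratio, PSI derived from sequencing read proportions per bin multiplied by bin number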
Experimental setup: c terminus: a fixed tail appended
protein stability index below 2 gives F; protein stability index at or above it gives T.

[[record]]
sequence_change = "Y18H"
discrete_label = "T"

[[record]]
sequence_change = "P17T"
discrete_label = "T"

[[record]]
sequence_change = "A6S"
discrete_label = "T"

[[record]]
sequence_change = "K8G"
discrete_label = "T"

[[record]]
sequence_change = "I19P"
discrete_label = "F"


Please tell me: is the variant "N23V" at or over 2 in terms of protein stability index? F

Please tell me: is the variant "K8F" at or over 2 in terms of protein stability index? T
